# Tested on: Fibroblast
# Procedure details: Multiplex assay against human fibroblast
# Format: toxicity, cell-based
# Cond: 24 h, 1 µM, compound concentration 1 uM, replicate 1
Listed compounds paired with reported Population Fragmented Nuclei (%)
# output: bare number, implied unit %

Challenge: Could you please provide reported Population Fragmented Nuclei (%) for Cc1cc(-c2ccc3c(c2)CC[C@H]3N2CC3(CCN(C(=O)Cc4cn5cc(C)sc5n4)CC3)C2)ncn1 ? Thanks!
Response given: 19

Challenge: Specify reported Population Fragmented Nuclei (%) for the compound shown: COc1c(Nc2ccc(S(C)(=O)=O)nc2C)ncnc1OC1CCN(C(=O)OC(C)C)CC1
Response given: 17

Challenge: Return Population Fragmented Nuclei (%) for the following compound: Cc1cc(NC(=O)NCCN2CCC(O)(Cc3ccccc3)CC2)c2ccccc2n1
Response given: 15

Challenge: Read the entry Cl.Cl.OCCOCCN1CCN(C(c2ccccc2)c2ccc(Cl)cc2)CC1 (centres undefined) [HYDROXYZINE HYDROCHLORIDE] and write its reported Population Fragmented Nuclei (%).
Response given: 9
